From: patent US20120207763A1

Target: CDK2/Cyclin-A kinase complex (Homo sapiens, UniProt P24941)
Experiment: CDK2 IMAP fluorescence polarization assay
Format: biochemical
Details: Table E; read-out: CDK2cyA IMAP/IC50 [umol l − 1]
pIC50: −log10 of the molar value.
observable: pIC50

Value of measured pIC50 for the entry CCC(CC)n1c(C(=O)N(C)C)cc2cnc(Nc3ccc(N4CCNCC4)cc3)nc21 : > 5.00

Lookup result for Cc1c(C(=O)N(C)C)n(C2CCCC2)c2nc(Nc3ccc(N4CCNCC4)cn3)ncc12 ; measured pIC50: > 5.00

Value of measured pIC50 for the entry Cc1cn(C2CCCC2)c2nc(Nc3ccncc3)ncc12 : > 6.00

Record CCC(CC)n1c(C(=O)OC)cc2cnc(Nc3ccc(N4CCN(C(C)=O)CC4)cc3)nc21 , field pIC50: > 5.00

Given item Cc1c(-c2cnco2)n(C2CCCC2)c2nc(Nc3ccc(N4CCNCC4)cn3)ncc12 , the value recorded as its pIC50 is > 5.00

Documented pIC50 of CC(=O)N1CCN(c2ccc(Nc3ncc4ccn(C5CCCCCC5)c4n3)cc2)CC1 : > 5.00

The recorded pIC50 for entry CCC(C(N)=O)n1ccc2cnc(Nc3ccc(N4CCNCC4)cc3)nc21 (stereo not drawn) equals < 5.00

Cc1cccnc1Nc1ncc2c(C)cn(C3CCCC3)c2n1 yielded pIC50 of < 5.00

Briefly, pIC50 measured for Cc1c(C(N)=O)n(C2CCCC2)c2nc(Nc3ccc(N4CCNCC4)cn3)ncc12 : < 5.00

---

Molecular target: CDK4 (Homo sapiens)
Sequence (P11802 whole entry): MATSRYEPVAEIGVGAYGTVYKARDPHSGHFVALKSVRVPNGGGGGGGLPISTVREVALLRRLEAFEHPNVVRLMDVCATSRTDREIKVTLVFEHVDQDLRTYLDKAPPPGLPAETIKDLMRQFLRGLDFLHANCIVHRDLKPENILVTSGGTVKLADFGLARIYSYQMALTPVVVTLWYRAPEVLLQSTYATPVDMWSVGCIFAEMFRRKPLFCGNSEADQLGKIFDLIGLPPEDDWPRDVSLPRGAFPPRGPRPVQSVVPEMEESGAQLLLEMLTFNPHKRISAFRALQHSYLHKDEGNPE
Sequence (P24385 whole entry partner): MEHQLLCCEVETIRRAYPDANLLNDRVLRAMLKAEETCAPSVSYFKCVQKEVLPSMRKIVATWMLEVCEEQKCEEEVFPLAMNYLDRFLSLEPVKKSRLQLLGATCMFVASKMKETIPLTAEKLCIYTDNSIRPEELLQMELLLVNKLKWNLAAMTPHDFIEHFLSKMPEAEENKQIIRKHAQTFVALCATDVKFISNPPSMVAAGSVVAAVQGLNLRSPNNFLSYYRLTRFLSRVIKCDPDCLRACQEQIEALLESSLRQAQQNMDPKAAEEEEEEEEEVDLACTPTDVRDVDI
Experiment: CDK4 HTRF assay
Assay type: biochemical
Settings: Table E; read-out: CDK4 HTRF/IC50 [umol l − 1]
observable: IC50

Form: item CN(C)C(=O)c1cc2cnc(Nc3ccc(C4CCNCC4)cc3)nc2n1C1CCCC1 ; test system CDK4 (Homo sapiens); IC50: < 1 µM

// returns IC50 for OC1CCCC(n2ccc3cnc(Nc4ccc(N5CCNCC5)cc4)nc32)C1 (stereo not drawn) with CDK4 (Homo sapiens); value = < 1 µM

Tested on CDK4 (Homo sapiens), the item Cc1cn(C2CCCC2)c2nc(Nc3ccc(CCN4CCOCC4)cc3)ncc12 showed IC50 equal to < 1 µM

Lab note: molecule Cc1cn(-c2nccs2)c2nc(Nc3ccc(N4CCN(S(C)(=O)=O)CC4)cn3)ncc12 tested on CDK4 (Homo sapiens); recorded IC50 was 10 µM

Lab note: molecule Cc1cn(C2CCCC2)c2nc(Nc3nccc4ccccc34)ncc12 tested on CDK4 (Homo sapiens); recorded IC50 was > 10 µM

Kindly note: CDK4 (Homo sapiens), Cc1cn(C2CCCC2)c2nc(Nc3ccc(N4CCNCC4)cc3)ncc12 , IC50 value reported: < 1 µM

Summary: CN(C)C(=O)c1cc2cnc(NCc3ccc(N4CCN(C(=O)OC(C)(C)C)CC4)cc3)nc2n1C1CCCC1 , CDK4 (Homo sapiens), IC50 = > 10 µM

For Cc1cn(C2CCCC2)c2nc(Nc3ccccc3F)ncc12 on CDK4 (Homo sapiens), measured IC50 was 10 µM

Observed IC50 on CDK4 (Homo sapiens), entry Cc1cn(C2CCCC2)c2nc(Nc3ccc(CN4CCNCC4)cc3)ncc12 , equals < 1 µM

---

Molecular target: CDK4 (Homo sapiens)
Test: CDK4 HTRF assay
Type: biochemical
Settings: Table E; read-out: CDK4 HTRF/IC50 [umol l − 1]
observable: IC50

In plain terms, Cc1ccc(Nc2ncc3ccn(C4CCCC4)c3n2)nc1 has a documented IC50 of > 10000 nM

IC50 reported for this molecule CCOC(=O)C(C(C)C)n1ccc2cnc(Nc3ccc(N4CCNCC4)cc3)nc21 (stereo not shown) : < 1000 nM

The molecule Brc1cn(C2CCCC2)c2nc(Nc3ccc(N4CCNCC4)cn3)ncc12 showed IC50 equal to > 10000 nM

The reported value for c1cc(N2CCNCC2)ccc1Nc1ncc2ccn(C3CCCCC3)c2n1 in terms of IC50 is < 1000 nM

response.value for CCC(CC)n1c(C(=O)NC)cc2cnc(Nc3ccc(N4CCNCC4)cc3)nc21 (field: IC50) = < 1000 nM

Looking up Cc1c(-c2cnco2)n(C2CCCC2)c2nc(Nc3ccc(CN4CCNCC4)cn3)ncc12 , I found its IC50 recorded as < 1000 nM

Short answer for CCC(CC)n1c(CNCCc2cc3ccccc3[nH]2)cc2cnc(Nc3ccc(N4CCN(C(C)=O)CC4)cc3)nc21 : IC50 was < 1000 nM

Looking up CC(=O)N1CCN(c2ccc(Nc3ncc4ccn(C5CCC(C)C5)c4n3)cc2)CC1 (stereo not shown) , I found its IC50 recorded as < 1000 nM

Per the records, this molecule ( Cc1cn(C2CCCC2)c2nc(Nc3ccncn3)ncc12 ) has IC50 equal to > 10000 nM

Documented IC50 of CCC(CC)n1c(C(=O)O)cc2cnc(Nc3ccc(N4CCNCC4)cc3)nc21 : < 1000 nM

IC50 in this record for Cc1c(Cl)c2cnc(Nc3ccc(N4CCNCC4)cn3)nc2n1C1CCCC1 : < 1000 nM

What the record says about c1ncc(-c2ccc(Nc3ncc4ccn(C5CCCC5)c4n3)cc2)o1 : IC50 is > 10000 nM

Note to self: IC50 recorded for CCC(C(=O)O)n1ccc2cnc(Nc3ccc(N4CCN(C(C)=O)CC4)cc3)nc21 (stereo not shown) was > 10000 nM

IC50 for Cc1cn(C2CCC(O)C2)c2nc(Nc3ccc(CN4CCNCC4)cc3)ncc12 (stereo not shown) is < 1000 nM

Record CCC(CC)n1c(C(=O)Nc2cc[nH]n2)cc2cnc(Nc3ccc(N4CCNCC4)cc3)nc21 . Reported IC50: < 1000 nM

Looking up CCC(CC)n1c(C(=O)Nc2ccc(C(F)(F)F)cc2)cc2cnc(Nc3ccc(N4CCNCC4)cc3)nc21 , I found its IC50 recorded as < 1000 nM

The value of IC50 measured for the molecule CN(C)C(=O)c1cc2cnc(Nc3ccc(CN4CCNCC4)cc3)nc2n1C1CCCC1 turned out to be < 1000 nM

Record summary for Cc1cn(C2CCCC2)c2nc(Nc3ccc4[nH]c(=O)[nH]c4c3)ncc12 : reported IC50 = < 1000 nM

Documented IC50 of CCC(CC)n1c(C(=O)Nc2cccnc2)cc2cnc(Nc3ccc(N4CCNCC4)cc3)nc21 : < 1000 nM

The molecule listed as CC1CCC(n2ccc3cnc(Nc4ccc(N5CCNCC5)cc4)nc32)C1 (stereo not shown) shows IC50 equal to < 1000 nM

Reported IC50 for CCC(CC)n1c(C(=O)Nc2cccc(C(C)(C)C)c2)cc2cnc(Nc3ccc(N4CCNCC4)cc3)nc21 was < 1000 nM

Record Cc1cn(C2CCCCC2)c2nc(Nc3ccc(N4CCNCC4)cn3)ncc12 , field IC50: < 1000 nM

For this molecule ( COc1cccc(Nc2ncc3c(C)cn(C4CCCC4)c3n2)c1 ), measured IC50 is 10000 nM

Short answer for CCCC(C(=O)OCC)n1ccc2cnc(Nc3ccc(N4CCN(C(C)=O)CC4)cc3)nc21 (stereo not shown) : IC50 was > 10000 nM

Looking up CCC(CC)n1c(-c2cnco2)cc2cnc(Nc3ccc(N4CCN(C(C)=O)CC4)cc3)nc21 , I see its IC50 listed as < 1000 nM

Reported IC50 of CCC(CC)n1c(C(=O)Nc2ccc(OC)cc2)cc2cnc(Nc3ccc(N4CCNCC4)cc3)nc21 : < 1000 nM

Lab note: CC(=O)c1c(C)c2cnc(Nc3ccc(N4CCNCC4)cc3)nc2n1C1CCCC1 gave IC50 of < 1000 nM

The reported IC50 of the molecule Cc1c(-c2cnco2)n(C2CCCC2)c2nc(Nc3ccc(CN4CCNCC4)cc3)ncc12 was < 1000 nM

Value of IC50 reported for the molecule CCC(CC)n1c(C(=O)O)cc2cnc(Nc3ccc(N4CCN(C(C)=O)CC4)cc3)nc21 is < 1000 nM

The molecule listed as Cc1c(-c2cnco2)n(C2CCCC2)c2nc(Nc3ccc(CN4CCOCC4)cc3)ncc12 has a reported IC50 of < 1000 nM

Lab book: IC50 of CCC(CC)n1c(C(=O)Nc2ccccn2)cc2cnc(Nc3ccc(N4CCNCC4)cc3)nc21 noted as < 1000 nM

The reported IC50 of the molecule CCC(CC)n1c(COC)cc2cnc(Nc3ccc(N4CCN(C(=O)OC(C)(C)C)CC4)cc3)nc21 was > 10000 nM

The measured IC50 associated with CCN(CC)c1ccc(Nc2ncc3ccn(C4CCCC4)c3n2)cc1 reads > 10000 nM

In plain terms, Cc1c(-c2cnco2)n(C2CCCCCC2)c2nc(Nc3ccc(N4CCNCC4)cn3)ncc12 has a documented IC50 of < 1000 nM
